Consider the following log10 IC50 data for D-amino-acid oxidase (Sus scrofa, UniProt P00371), collected from several reports.
Please interpret these as log10 of IC50 where IC50 is in µM.

**Q:** Looking for the measured log10 IC50 of CCOc1cccc2c1[nH]c(=O)n2O , can you help?
**A:** 1.70

**Q:** Next compound: O=c1[nH]oc2cc(C(F)(F)F)ccc12
**A:** 0.70

**Q:** Next compound: Cc1cccc2c1[nH]c(=O)n2O
**A:** -0.40

**Q:** Next compound: Oc1noc2cc(Cl)ccc12
**A:** -0.73

**Q:** Next compound: COc1ccc2c(O)noc2c1
**A:** 0.41

**Q:** Next compound: O=[N+]([O-])c1ccc2c(O)noc2c1
**A:** -0.14

**Q:** Next compound: Cc1ccc2c(c1)[nH]c(=O)n2O
**A:** 0.60

**Q:** Next compound: N#Cc1ccc(COc2ccc3c(c2)SCC(=O)N3)cc1
**A:** 1.68

**Q:** Next compound: Cc1cc(C)c2[nH]c(=O)n(O)c2c1
**A:** 0.60

**Q:** Next compound: Cc1ccc2c(O)noc2c1
**A:** -0.57

**Q:** Next compound: O=c1[nH]c2ccc(Cl)cc2n1O
**A:** 0.30

**Q:** Next compound: O=c1[nH]c2c(Cc3ccccc3)cccc2n1O
**A:** 1.70

**Q:** Next compound: CC(C)c1cccc2c1[nH]c(=O)n2O
**A:** 1.00
